Data provenance is ChEMBL document CHEMBL1132146.

LD50 for assorted compounds
Experiment: acute toxicity against mouse after ip administration
Format: organism-based
Details: in vivo
// return numeric value only (unit: mg/kg, not printed)

compound	LD50, mg/kg
O=P1(NCCCl)OCCCN1CCCl (stereo not drawn) [IFOSFAMIDE]	700

From here, focus on the item given below.
[ask] # lookup: LD50 of `O=P(O)(O)OCCCN1CC1`
[reply] 180

---

pKa for assorted molecules
Test: pKa. (dissociation constant) of the compound
Format: physicochemical
No unit in the answer, please; the number alone is enough.

item.smiles	result.value
O=P1(O)NCCCO1	4.1

From here, focus on the item given below.
[ask] # lookup: pKa of `NP(=O)(O)OCCCNCCCl`
[reply] 2.3
